Exercise: for every item that follows, state its recorded Percent Effect.
Species: Homo sapiens
Experiment: To identify inhibition of the IFN signalling (Jak-Stat) pathway via expression of an eGFP reporter gene under the control of an IFN-stimulated response element (ISRE) containing MxA promoter.
Format: functional
Set-up: scale not given: direction of the effect not stated beside the values
Settings: 30 µM
Express your answer in %, writing the number without its unit.

What measured Percent Effect goes with COc1ccc(CCNC(=O)C2CCC(Cn3cnnn3)CC2)cc1 (stereo not given) ? -2.49

Param item: "Cc1ccoc1C(=O)N1CCO[C@H]2[C@H](OCCN(C)C)CC[C@@H]21" -12.8

Param item: "COc1ccc(Cc2nnc(SC)o2)cc1OC" -12.7

Param item: "COCCO[C@@H]1CCN(C(=O)c2ccc(C)o2)[C@@H]1Cc1cccnc1" 2.29

Param item: "OC[C@H]1CC[C@]2(CC1)CN(Cc1ccccc1F)Cc1ccccc1O2" 41.4

Param item: "CN1CCCN(C(=O)NCc2csc(Br)c2)CC1" 15.4

Param item: COCCN1CCN(CCCS(=O)(=O)c2ccccc2)CC1C (stereo not given) -19.8

Param item: "O=C(CCNc1ncccn1)NCCOc1ccc2c(c1)CCC2" 1.31

Param item: CC(O)CC(C)(C)CNC(=O)NCc1cccc(-n2cncn2)c1 (stereo not given) -9.29

Param item: "O=C(Cc1ccsc1)N1CCC(n2nc(-c3ccco3)ccc2=O)CC1" -0.185

Param item: Cc1nccn1C1CCCN(C(=O)C2=NN(C)C(=O)CC2)C1 (stereo not given) 23.8

Param item: CCOC(=O)NC(CNC(=O)c1ncccn1)CC(C)C (stereo not given) -4.96

Param item: CN(Cc1ccco1)C(=O)C1CSCN1C(=O)c1cccnc1 (stereo not given) -7.95

Param item: "CCN1CCN(C2CCN(Cc3nc4ccccc4o3)CC2)C1=O" -19

Param item: Cc1cc(Nc2nc(C)cs2)nc(C2CCCCN2CCO)n1 (stereo not given) -9.01

Param item: "CCNc1cc2c(nn1)CCN(C(=O)CC1CCCCC1)C2" -11.3

Param item: Cc1n[nH]c(C2CN(C(=O)c3cc(C4CC4)[nH]n3)CCO2)n1 (stereo not given) -11

Param item: CC(C)c1nn(C)c(Cl)c1CNCC(O)c1cccc(F)c1 (stereo not given) 4.38

Param item: Cn1cnc2c1C(COCC1CCOCC1)CN(C1CCOCC1)C2 (stereo not given) -11.2

Param item: "O=S(=O)(Cc1ccccc1F)NCCCN1CCCCC1" -24.3

Param item: COC(=O)CCNC(=O)C1CC(=O)N(C2CCCC2)C1 (stereo not given) -6.8

Param item: "O=C(CCc1ccccn1)N1CCc2cc(Cl)cc(Cl)c2C1" 47.7

Param item: Cc1cc(C)n(CC2CCCN2C(=O)c2cnn(C)c2C2CC2)n1 (stereo not given) 9.84

Param item: Cn1cc(C2CCCN2C(=O)c2ccc(Br)o2)cn1 (stereo not given) 16.1

Param item: COc1cccc2c1ccn2CCC(=O)N1CCCC(C(=O)O)C1 (stereo not given) 12.8

----------
Organism: Homo sapiens
Test: To identify inhibition of the IFN signalling (Jak-Stat) pathway via expression of an eGFP reporter gene under the control of an IFN-stimulated response element (ISRE) containing MxA promoter.
Type: functional
Set-up: scale not given: direction of the effect not stated beside the values
Details: 30 µM
reportedMetric: Percent Effect (%)
Express your answer in %, writing the number without its unit.

What measured Percent Effect goes with COc1ccc(CNCC(C)Oc2ccccn2)cc1Br (stereo not drawn) ? 3.97

Param item: COCCN1CCC(Cc2cncc(-c3ccc(C(=O)O)cc3)n2)C1 (stereo not drawn) 12.6

Param item: "O=C(c1ccncn1)N1CCO[C@H]2[C@@H](OCc3cccnc3)CC[C@@H]21" 2.92

Param item: Cc1cc(C)n(CC2CN(CCOc3cccc(C#N)c3)CCO2)n1 (stereo not drawn) 6.94

Param item: "CNC(=O)[C@H]1C[C@@H]2CN(C(=O)c3ccco3)C[C@@H]2N1S(C)(=O)=O" -4.85

Param item: CC(Cn1cccn1)NC(=O)Nc1ccc(F)cc1 (stereo not drawn) 9.63

Param item: "N#Cc1cn(CC(=O)NC2CC2)c2ccc(Br)cc2c1=O" -0.582

Param item: "CC(C)c1nn(C)c(N(C)C)c1CNCc1ccccc1CN(C)C" -8.54

Param item: "Cc1noc([C@H]2C[C@H]3OCC[C@H]3N(S(=O)(=O)C3CC3)C2)n1" 3.43

Param item: O=C(c1cccc(CN2CCCC2)c1)N1CCCC(n2cncn2)C1 (stereo not drawn) 23.3

Param item: N#Cc1cccc(CS(=O)(=O)NCCC(O)c2ccccc2)c1 (stereo not drawn) 3.01

Param item: "Cc1cc(-c2nnn(CCC(N)=O)n2)ccc1F" 11.3

Param item: O=S(=O)(C1CC1)N1CCC2(COCc3cnc(N4CCOCC4)nc32)C1 (stereo not drawn) 13.3

Param item: "Cn1cc(C(=O)NCc2cn3c(n2)CN(CC2CCOCC2)CC3)cn1" 20.1

Param item: "Cc1ccc(CN(Cc2cccnc2)C2CC(C)(C)NC(C)(C)C2)s1" 13.4

Param item: Cc1n[nH]c(C2CN(C(=O)c3cc(Cl)c[nH]3)CCO2)n1 (stereo not drawn) -2.14

Param item: "N#Cc1ccccc1CN1C[C@@H]2CC[C@H](C1)N(Cc1cscn1)C2=O" -7.44

Param item: "Cc1nc[nH]c1CN1C[C@@H]2CC[C@H](C1)N(C(=O)CCc1cnn(C)c1)C2" -11.8

Param item: "CCNS(=O)(=O)c1ccc(C)c(C(=O)N(C)Cc2ccco2)c1" -0.366

Param item: "O=C(COCc1nc(-c2ccncc2)no1)N1CCCC1" -13.8

Param item: "CC(=O)NC(C)(C)C(=O)Nc1ncc(Cc2ccc(C)c(F)c2)s1" 28.2

Param item: COc1ccc(CN2CCCC(Cn3nc(C)nc3C)C2)cc1F (stereo not drawn) 5.94

Param item: "Cc1ccc(Cl)cc1C(=O)N1CCC2(CC1)c1ccccc1[C@@H](N)[C@@H]2O" 2.23
